Test system: A549/ATCC NSCLC
assay.summary: NCI-60 one-dose screen, 48 h
test.parameters: 10 µM unless noted
Procedure: Growth inhibition of the A549/ATCC human Non-Small Cell Lung tumor cell line is measured as a screen for anti-cancer activity. Cells are grown in 96 well plates and exposed to the test compound for 48 hours. Compounds are tested at a single concentration, which is 10^-5 M for most compounds. The reported endpoint is percent growth (GI% or GIPRCNT), where numbers from 0 - 100% represent growth inhibition, and numbers from -100% - 0 represent cell death. […]
Compounds without any hit were thinned out: in the full panel of roughly 83,000, 20% have a hit. Active and inactive are the calls of the source. How the source made its calls: active means growth percent below 10; inactive means the rest.
Select the matching outcome among t (active), f (inactive)

{"compound": "COc1cc(/C=C\\c2cc(OC)c(OC)c(OC)c2)cc(NC(=O)/C=C/c2cc(OC)c(OC)c(OC)c2)c1OC", "class.name": "f"}
{"compound": "CCc1c(Cl)nc(N)nc1Nc1ccc(C)c(C)c1", "class.name": "f"}
{"compound": "Cn1cc(-c2csc(-c3c[nH]c4ccccc34)n2)c2ccnc(Cl)c21", "class.name": "f"}
{"compound": "CC(Oc1ccc(C(=O)O)cc1C(F)(F)F)c1ccc(Oc2ccccc2)cn1 (stereo unspecified)", "class.name": "f"}
{"compound": "CCCCCCCCOc1ccc(/C=N/Nc2cc(C)nc3ccc(Br)cc23)cc1", "class.name": "f"}
{"compound": "COc1ccc(/C=C/c2nc(Nc3ccc(Cl)cc3)c3ccccc3n2)cc1", "class.name": "f"}

Returns: the outcome recorded for c1ccc2cc(Cn3c(-c4cccc5ccccc45)[n+](Cc4ccc5ccccc5c4)c4c5ccccc5c5ccccc5c43)ccc2c1 in this assay.
t

Returns: the outcome recorded for CCC(CC)NCC(C)(C)O in this assay.
f

Returns: the outcome recorded for Cc1cccc(NC(=O)Nc2ccc(-c3ccc4c(c3)NC(=O)/C4=C\c3ccc[nH]3)cc2)c1 in this assay.
f

Returns: the outcome recorded for CC(=O)[C@@H]1CC[C@]2(CO)CC[C@]3(C)[C@H](CC[C@@H]4[C@@]5(C)CCCNC(C)(C)[C@@H]5CC[C@]43C)[C@@H]12 in this assay.
f

Returns: the outcome recorded for COc1cc(NC(C)CCCNC(=O)CCC(=O)NCCCNCCCCCCCCCCNCCCNC(=O)CCC(=O)NCCCC(C)Nc2cc(OC)cc3cccnc23)c2ncccc2c1 (stereo unspecified) in this assay.
f

Returns: the outcome recorded for CCNC(=O)Oc1ccc(/C(=C(\C)c2ccccc2)c2ccc(OCCN(CC)CC)cc2)cc1 in this assay.
f

Returns: the outcome recorded for CCCN1[C@@H]2CC[C@H]1/C(=C\c1ccc(OC)c(OC)c1)C(=O)/C2=C/c1ccc(OC)c(OC)c1 in this assay.
f

Returns: the outcome recorded for O=C1OC(Cc2ccccc2)C1c1ccccc1 (stereo unspecified) in this assay.
f

Returns: the outcome recorded for Oc1ccc(C(c2ccc(O)cc2)c2ccc(Br)cn2)cc1 in this assay.
f

Returns: the outcome recorded for NS(=O)(=O)c1ccc(CCN2C(=O)C3C(C2=O)C2(Cl)C(Cl)=C(Cl)C3(Cl)C2(Cl)Cl)cc1 (stereo unspecified) in this assay.
f

Returns: the outcome recorded for COc1ccc(C(=O)NNc2nc(Cl)nc(N3CCN(C(c4ccccc4)c4ccccc4)CC3)n2)cc1 in this assay.
f

Returns: the outcome recorded for COc1cc(-c2csc(NC(=O)c3cc(F)cc(C(F)(F)F)c3)n2)cc(OC)c1OC in this assay.
f
